Tested on: Plasmodium falciparum K1 (chloroquine-resistant) parasite strain
Experiment: In vitro antimalarial assay (p-LDH, 72 h) against Plasmodium falciparum K1 strain
Format: cell-based
Settings: Plasmodium falciparum, K1; Table S1; synthesized compounds and positive controls; read-out: IC50 Antimalarial activity (K1 strain)
Procedure: Briefly, the P. falciparum K1 strain was cultured in human erythrocytes in RPMI medium supplemented with 10% human plasma at 37 °C, under 93% N2, 4% CO2, and 3% O2. Asynchronous parasites (2% hematocrit and 0.5 or 1% parasitaemia) were seeded in a 96-well microtiter plate and serially diluted test compounds were added. […] After 72-hours incubation, parasite lactate dehydrogenase (p-LDH) was assayed using a slight modification of the procedure reported by Makler et al.[31] and Vivas et al.[32]. […]
parameter: IC50 (µg/mL)

[N-]=[N+]=NCc1cc(O)c(O)c(=O)c(O)c1 [Compound 44, 4-Azidomethyl-6,7-dihydroxytropolone] :: 0.096
O=c1c(O)cc(CO)cc(O)c1O [Compound 42, 4-Hydroxymethyl-6,7-dihydroxytropolone] :: 0.038

P. O=c1c(O)ccc(CO)cc1O [Compound 37, 4-Hydroxymethyl-7-hydroxytropolone]
Q. COc1cc(C(=O)O)cc(O)c(=O)c1O
Q: // returns P or Q , whichever has the lower IC50 Let me know the label of the one you choose.
Ans: Q

====

parameter: melting point (°C)

COCc1cc(O)c(O)c(=O)c(O)c1 [Compound 43, 4-Methoxymethyl-6,7-dihydroxytropolone] :: 120
COc1c(O)cc(C(=O)O)cc(O)c1=O [Compound 3, viticolin A] :: 227
O=c1c(O)cc(CO)cc(O)c1O [Compound 42, 4-Hydroxymethyl-6,7-dihydroxytropolone] :: 162

====

tested on: Plasmodium falciparum K1 (chloroquine-resistant) parasite strain; test: In vitro antimalarial assay (p-LDH, 72 h) against Plasmodium falciparum K1 strain; assay type: cell-based; conditions: Plasmodium falciparum, K1; synthesized derivatives, in vitro; read-out: IC50 Antimalarial activity (K1 strain)
Recorded measurements of IC50, one per entry

Field IC50 (entry `COc1cc(C(=O)O)cc2c(c1=O)OC(C)(C)O2` ) reads > 50 µM

====

tested on: Plasmodium falciparum K1 (chloroquine-resistant) parasite strain; experiment: In vitro antimalarial assay (p-LDH, 72 h) against Plasmodium falciparum K1 strain; assay type: cell-based; conditions: Plasmodium falciparum, K1; synthesized derivatives, in vitro; read-out: IC50 Antimalarial activity (K1 strain)
Recorded measurements of IC50, one per entry

Below, 4 molecules whose answers are already recorded.
CC1(C)Oc2cc(C(=O)O)cc(O)c(=O)c2O1 :: > 50 µM
COc1c2c(cc(C(=O)O)cc1=O)OC(C)(C)O2 :: > 50 µM
COC(=O)c1cc2c(c(=O)c(OC)c1)OC(C)(C)O2 :: > 47 µM
CC1(C)Oc2cc(C=O)cc(O)c(=O)c2O1 :: > 56 µM

Field IC50 (entry `COC(=O)c1cc2c(c(OC)c(=O)c1)OC(C)(C)O2` ) reads > 47 µM
